# test system: T1, GST-only (UniProt P08515 1-218 = GST)
# T1 construct: Control bait/prey in pull-down assays; also called GST (negative control)
# T1 sequence (P08515 whole entry): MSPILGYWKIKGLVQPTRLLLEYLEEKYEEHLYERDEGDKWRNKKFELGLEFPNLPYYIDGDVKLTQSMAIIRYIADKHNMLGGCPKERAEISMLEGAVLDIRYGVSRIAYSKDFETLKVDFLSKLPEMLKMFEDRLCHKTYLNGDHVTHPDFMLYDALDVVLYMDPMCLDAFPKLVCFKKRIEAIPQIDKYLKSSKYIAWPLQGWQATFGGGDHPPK
# assay procedure: peptide pull-down: biotinylated peptide on streptavidin-agarose beads, GST-only in solution, Western blot with anti-GST antibody
Ends that are not written are not given here. * marks the point of attachment. Biotin = O=C1N[C@H]2[C@H](CS[C@H]2CCCCC(=O)*)N1
reported property: binding result

Biotin-GYTIVTYAELDECLEDPC (cysteine pairing not given here, also called a2N198-214) [a2N-11]	no binding
Biotin-ETGEVIKWYVFLISFWC (also called a2N215-230) [a2N-12]	no binding
Biotin-NMCSFDVTNKCLIAEVWCPC (cysteine pairing not given here, also called a2N313-331) [a2N-18]	no binding
Biotin-YGVGSYREVNPALFTIIC [a2N-22]	no binding

// next entry
What value of measured binding result is listed for Biotin-VQFRDLNQNVSSFQRC (also called a2N35-49) [a2N-03] ?
no binding
